Test system: HeLa
Assay: HeLa toxicity: nuclei-count effect normalised to DMSO (DMSO = 0); higher = more features changed / larger toxic effect
Conditions: incubation time: 24h incubation; 29.9 µM
Would you mind labelling by HeLa toxicity: nuclei-count effect normalised? At or over 70% is true, under is false.

Example entries and their recorded answers appear below.
[[record]]
compound = "O=C(O)c1ccc(/C=C2/SC(=S)N(c3cccc(C(F)(F)F)c3)C2=O)cc1 [CTFRinh-172]"
cat = "false"

[[record]]
compound = "c1ccc2c(c1)SCc1c-2[nH]c2ccccc12"
cat = "true"

[[record]]
compound = "Cc1sc2c(c1C)C(c1ccc(Cl)cc1)=N[C@@H](CC(=O)OC(C)(C)C)c1nnc(C)n1-2 [JQ1]"
cat = "false"


Query block: Exam item: decide whether the reported HeLa toxicity: nuclei-count effect normalised for Cc1ccc(S(=O)(=O)c2ccc([N+](=O)[O-])o2)cc1 is at least 70%.
Result block: true

Query block: Exam item: decide whether the reported HeLa toxicity: nuclei-count effect normalised for O=C(c1cccs1)c1no[n+]([O-])c1C(=O)c1cccs1 is at least 70%.
Result block: true

Query block: Exam item: decide whether the reported HeLa toxicity: nuclei-count effect normalised for CCc1c(C)nc(SCC(=O)Nc2nc(-c3ccc(OC)cc3)cs2)[nH]c1=O [T16Ainh-A01] is at least 70%.
Result block: false

Query block: Exam item: decide whether the reported HeLa toxicity: nuclei-count effect normalised for COCC(=O)O[C@]1(CCN(C)CCCc2nc3ccccc3[nH]2)CCc2cc(F)ccc2[C@@H]1C(C)C [Mibefradil] is at least 70%.
Result block: true

Query block: Exam item: decide whether the reported HeLa toxicity: nuclei-count effect normalised for C=CC[C@@H]1/C=C(\C)C[C@H](C)C[C@H](OC)[C@H]2O[C@@](O)(C(=O)C(=O)N3CCCC[C@H]3C(=O)O[C@H](/C(C)=C/[C@@H]3CC[C@@H](O)[C@H](OC)C3)[C@H](C)[C@@H](O)CC1=O)[C@H](C)C[C@@H]2OC [Tacrolimus] is at least 70%.
Result block: false

Query block: Exam item: decide whether the reported HeLa toxicity: nuclei-count effect normalised for N=C(N)Nc1ccc(C(=O)Oc2ccc3cc(C(=N)N)ccc3c2)cc1 [Nafamostat] is at least 70%.
Result block: false

Query block: Exam item: decide whether the reported HeLa toxicity: nuclei-count effect normalised for [O]=[V]([O-])([O-])[O-] [Sodium orthovanadate] is at least 70%.
Result block: false

* * *

System: human spermatozoa
Assay: progressively motile sperm, percent change vs DMSO (non-capacitating); higher = more of the measured sperm population than DMSO, for viability, fewer PI-positive (dead) cells than DMSO; extreme values may be limits of the assay
Settings: incubation time: 6h incubation, 29.9 µM
Quick reference for progressively motile sperm among some molecules
Provide only the numeric value, understood in %.

[[record]]
smiles_structure = "Nc1nc(Cl)nc2c1ncn2[C@@H]1O[C@H](CO)[C@@H](O)[C@@H]1F"
recorded_value = 29.9

[[record]]
smiles_structure = "CNc1ccc2oc(C[C@H]3O[C@@]4(CC[C@H]3C)O[C@H]([C@H](C)C(=O)c3ccc[nH]3)[C@H](C)C[C@H]4C)nc2c1C(=O)O"
recorded_value = -100

[[record]]
smiles_structure = "N=C(N)Nc1nc2ccccc2[nH]1"
recorded_value = 6.54

[[record]]
smiles_structure = "Nc1nonc1C(=O)c1cccc(OCc2nc3ccccc3[nH]2)c1"
recorded_value = -29.2


Now let's try a different one.
Query block: Entry Cn1c(=O)c2c(-c3ccccc3)n3c(c2n(C)c1=O)[C@H](c1ccc(Br)o1)Oc1ccc(C(=O)O)cc1-3 , system human spermatozoa: what progressively motile sperm was measured?
Result block: 42.7

* * *

Quick reference for acrosome-reacted among some compounds
System: human spermatozoa
Assay: acrosome-reacted (PNA+) sperm after agonist cocktail, percent change vs DMSO (capacitating); higher = more of the measured sperm population than DMSO, for viability, fewer PI-positive (dead) cells than DMSO
Settings: incubation time: 3h; 29.9 µM; capacitating + agonist cocktail 1h
Where a name gives a salt, the structure may show the parent alone.
Provide only the numeric value, understood in %.

Use these answered entries as a reference point.
[[record]]
compound = "CC(C)C(C(=O)OC(C#N)c1cccc(Oc2ccccc2)c1)c1ccc(Cl)cc1 (centres undefined) [Fenvalerate]"
tgt = "human spermatozoa"
recorded_value = 11.8

[[record]]
compound = "Nc1ncnc2c1c(-c1cccc(OCc3ccccc3)c1)cn2[C@H]1C[C@@H](CN2CCC2)C1"
tgt = "human spermatozoa"
recorded_value = 31.6


Query block: Dear colleague, I am looking for the recorded acrosome-reacted of the following compound: NC(=O)Nc1cc(-c2cccc(F)c2)sc1C(=O)N[C@H]1CCCNC1 [AZD 7762 hydrochloride]
Result block: -44

Query block: Dear colleague, I am looking for the recorded acrosome-reacted of the following compound: COc1cc(SC)ccc1C(=O)N1CCC(Cc2ccccc2)CC1
Result block: 16.2

Query block: Dear colleague, I am looking for the recorded acrosome-reacted of the following compound: N=C(N)Nc1nc(-c2ccc(Cl)cc2)cs1 [n-[4-(4-Chlorophenyl)-1,3-thiazol-2-yl]guanidine]
Result block: 21.5

Query block: Dear colleague, I am looking for the recorded acrosome-reacted of the following compound: Clc1ccc(C(OCCN2CCCCC2)c2ccccc2)cc1 (centres undefined) [Cloperastine hydrochloride]
Result block: -4.86

Query block: Dear colleague, I am looking for the recorded acrosome-reacted of the following compound: CCCCCCCCOc1ccc(-c2noc([C@@H]3CCCN3C(=N)N)n2)cc1C(F)(F)F
Result block: 138

* * *

Test system: human spermatozoa
Assay: total motile sperm, percent change vs DMSO (non-capacitating); higher = more of the measured sperm population than DMSO, for viability, fewer PI-positive (dead) cells than DMSO
Details: incubation time: 6h incubation, 9.99 µM
Where a name gives a salt, the structure may show the parent alone.
Would you mind labelling by total motile sperm? At or over -10% is condition met, under is condition not met.

Example entries and their recorded answers appear below.
[[record]]
molecule = "NC(=O)Nc1cc(-c2cccc(F)c2)sc1C(=O)N[C@H]1CCCNC1 [AZD 7762 hydrochloride]"
tgt = "human spermatozoa"
cat = "condition not met"

[[record]]
molecule = "CC(C)[C@H]1c2ccc(F)cc2CC[C@@]1(CCN(C)CCCc1nc2ccccc2[nH]1)OC(=O)C1CC1 [NNC 55-0396 dihydrochloride]"
tgt = "human spermatozoa"
cat = "condition not met"

[[record]]
molecule = "CCCCN1C[C@@H](O)[C@H](O)[C@H](O)[C@@H]1CO"
tgt = "human spermatozoa"
cat = "condition met"

[[record]]
molecule = "Nc1ccc(-c2ccc3ncc4ccc(=O)n(-c5cccc(C(F)(F)F)c5)c4c3c2)cn1"
tgt = "human spermatozoa"
cat = "condition not met"

[[record]]
molecule = "O=C(Nc1ccc([N+](=O)[O-])cc1Cl)c1cc(Cl)ccc1O [Niclosamide]"
tgt = "human spermatozoa"
cat = "condition met"


Query block: Exam item: decide whether the reported total motile sperm for COc1cc2nc(N(C)CCCNC(=O)C3CCCO3)nc(N)c2cc1OC (stereo not drawn) is at least -10%.
Result block: condition met

Query block: Exam item: decide whether the reported total motile sperm for Cc1ccc(S(=O)(=O)c2ccc([N+](=O)[O-])o2)cc1 is at least -10%.
Result block: condition not met

Query block: Exam item: decide whether the reported total motile sperm for O=C(c1cccs1)c1no[n+]([O-])c1C(=O)c1cccs1 is at least -10%.
Result block: condition not met

* * *

System: HepG2
Experiment: HepG2 toxicity (resazurin), effect normalised to DMSO (DMSO = 0); higher = more features changed / larger toxic effect
Conditions: incubation time: 70h incubation; 30 µM
Structures can show the parent of a compound that is named as a salt.
Quick reference for HepG2 toxicity among some molecules
Provide only the numeric value, understood in %.

Use these answered entries as a reference point.
[[record]]
molecule = "c1ccc2c(c1)SCc1c-2[nH]c2ccccc12"
outcome_measure = "HepG2 toxicity"
recorded_value = 102

[[record]]
molecule = "Cn1c(=O)c2c(-c3ccccc3)n3c(c2n(C)c1=O)[C@H](c1ccc(Br)o1)Oc1ccc(C(=O)O)cc1-3"
outcome_measure = "HepG2 toxicity"
recorded_value = -5.25

[[record]]
molecule = "COc1cc2c(cc1OC)-c1c/c(=N\\c3c(C)cc(C)cc3C)n(C)c(=O)n1CC2 [Trequinsin hydrochloride]"
outcome_measure = "HepG2 toxicity"
recorded_value = 40.3

[[record]]
molecule = "C=C[C@@]1(C)CC(=O)[C@@]2(O)[C@](C)(O1)[C@@H](OC(C)=O)[C@@H](O)C1C(C)(C)CC[C@H](O)[C@@]12C (some centres not stated)"
outcome_measure = "HepG2 toxicity"
recorded_value = -7.11


Query block: Dear colleague, I am looking for the recorded HepG2 toxicity of the following molecule: CNC(=O)c1ccccc1Nc1nc(Nc2ccc(N3CCOCC3)cc2OC)ncc1Cl
Result block: 99.8

Query block: Dear colleague, I am looking for the recorded HepG2 toxicity of the following molecule: N=C(N)Nc1nc(-c2ccc(Cl)cc2)cs1 [n-[4-(4-Chlorophenyl)-1,3-thiazol-2-yl]guanidine]
Result block: -2.59

Query block: Dear colleague, I am looking for the recorded HepG2 toxicity of the following molecule: O=C(Nc1ccc([N+](=O)[O-])cc1Cl)c1cc(Cl)ccc1O [Niclosamide]
Result block: 1.35
